These measurements were taken from ChEMBL document CHEMBL1130289.

Listing of recorded IC50 by entry.
System: Human alphaherpesvirus 2
protocol.details: Concentration required to inhibit HSV-2(G) induced cytopathicity in E6SM cells by 50%
measurement.setup: Human alphaherpesvirus 2, E6SM
Answer with a number only, understood to be in µg/mL.

Recorded IC50, per entry:
smi	system.under.test	quantity	recorded.measurement
CCCCCCCCCCCCSCCCCCCCCCCC(=O)N(CC)CCCCCCCCCCC(=O)NCCC(=O)[O-].[Na+]	Human alphaherpesvirus 2	IC50	20
CCCCCCCCCCCCSCCCCCCCCCCCCCCCCCCCCCCCCCCCCCCCCCCCCCCCCC(=O)NCCCCCCCCCCC(=O)[O-].[Na+]	Human alphaherpesvirus 2	IC50	20
CCCCCCCCCCCCSCCCCCCCCCCC(=O)N(C)CCCCCCCCCCC(=O)[O-].[Na+]	Human alphaherpesvirus 2	IC50	70
CCCCCCCCCCCCSCCCCC(=O)NCCCCCCCCCCC(=O)NCCC(=O)[O-].[Na+]	Human alphaherpesvirus 2	IC50	20
CCCCCCCCCCCCSCCCCCCCCCCCCCCCCCCCCCCCCCCCCCCCCC(=O)N(CC)CCCCCCCCCCC(=O)[O-].[Na+]	Human alphaherpesvirus 2	IC50	20

Memo: CCCCCCCCCCCCSCCCCCCCCCCCCC(=O)NCCCCCCCCCCC(=O)NCCC(=O)[O-].[Na+] , reported IC50: 20

----------
System: Semliki Forest virus
protocol.details: Concentration required to inhibit forest induced cytopathicity in Vero cells by 50%
Type: functional, organism-based
In this section, each of the compounds is paired with its reported IC50.

Record excerpt, results attached:
compound	quantity	recorded.measurement
CCCCCCCCCCCCSCCCCCCCCCCCCC(=O)NCCCCCCCCCCC(=O)[O-].[Na+]	IC50	> 200 µg/mL
CCCCCCCCCCCCSCCCCCCCCCCCCC(=O)NCCCCCCCCCCC(=O)NCCC(=O)[O-].[Na+]	IC50	> 200 µg/mL

Reported IC50 for CCCCCCCCCCCCSCCCCCCCCCCCCCCCCCCCCCCCCCCCCCCCCCCCCCCCCC(=O)NCCCCCCCCCCC(=O)[O-].[Na+] was > 200 µg/mL

Record CCCCCCCCCCCCSCCCCCCCCCCCCCCCCCCCCCCCCCCCCCCCCCCCCCCCCCCCCCCCCCCC(=O)N(CC)CCCCCCCCCCC(=O)NC(CCC(=O)[O-])C(=O)O.[Na+] (centres undefined) . Reported IC50: > 10 µg/mL

Measured IC50 of CCCCCCCCCCCCSCCCCCCCCCCC(=O)N(CC)CCCCCCCCCCC(=O)NCCC(=O)[O-].[Na+] : > 200 µg/mL

CCCCCCCCCCCCSCCCCCCCCCCCCCCCCCCCCCCCCCCCCCCCCC(=O)N(CC)CCCCCCCCCCC(=O)[O-].[Na+] has a reported IC50 of > 200 µg/mL

Lab note: CCCCCCCCCCCCSCCCCC(=O)NCCCCCCCCCCC(=O)NCCC(=O)[O-].[Na+] gave IC50 of > 200 µg/mL

// field: IC50; key: CCCCCCCCCCCCSCCCCCCCCCCC(=O)N(C)CCCCCCCCCCC(=O)[O-].[Na+] ; value = > 200 µg/mL

Entry CCCCCCCCCCCCSCCCCCCCCCCCCCCCCCCCCCCC(=O)NCCCCCCCCCCC(=O)[O-].[Na+] , IC50 reported as > 100 µg/mL

----------
Tested on: Human alphaherpesvirus 2
protocol.details: Concentration required to inhibit HSV-2(G) induced cytopathicity in E6SM cells by 50%
measurement.setup: Human alphaherpesvirus 2, E6SM
IC50 overview

// sample CCCCCCCCCCCCSCCCCCCCCCCCCC(=O)NCCCCCCCCCCC(=O)[O-].[Na+] , its IC50 was > 200 µg/mL

// IC50 value for CCCCCCCCCCCCSCCCCCCCCCCCCCCCCCCCCCCCCCCCCCCCCCCCCCCCCCCCCCCCCCCC(=O)N(CC)CCCCCCCCCCC(=O)NC(CCC(=O)[O-])C(=O)O.[Na+] (stereo not drawn) : > 40 µg/mL

Per the records, this compound ( CCCCCCCCCCCCSCCCCCCCCCCCCCCCCCCCCCCC(=O)NCCCCCCCCCCC(=O)[O-].[Na+] ) has IC50 equal to > 100 µg/mL
